Tested on: TNF production in LPS-stimulated PBMCs
PROTOCOL SUMMARY: Inhibition of TNF production in LPS-stimulated PBMCs ("cell")
Type: cell-based
EXPERIMENTAL CONDITIONS: Homo sapiens, PBMC, 4 ng/ml LPS, overnight, ELISA TNF-α
Experimental: C. Inhibition of IL-1, TNF, IL-6 and IL-8 Production in LPS-Stimulated PBMCs Inhibitors were serially diluted in DMSO from a 20 mM stock. At least 6 serial dilutions were prepared. Then 4× inhibitor stocks were prepared by adding 4 μl of an inhibitor dilution to 1 ml of RPMI1640 medium/10% fetal bovine serum. The 4× inhibitor stocks contained inhibitor at concentrations of 80 μM, 32 μM, 12.8 μM, 5.12 μM, 2.048 μM, 0.819 μM, 0.328 μM, 0.131 μM, 0.052 μM, 0.021 μM etc. […]
PARAMETER MEASURED: IC50 (nM)

>>> recorded_value("CN(C)/C=N/C(=O)OCc1ccc(N(C(N)=O)c2c(F)cccc2F)nc1-c1ccc(F)cc1F [Compound 9]")
50

* * *

Tested on: TNF production in whole blood
PROTOCOL SUMMARY: Inhibition of TNF production in LPS-stimulated whole blood ("WB")
Format: cell-based
EXPERIMENTAL CONDITIONS: Homo sapiens, 4 ng/ml LPS, overnight, ELISA TNF-α
Measured IC50, listed per entry for reference.
PARAMETER MEASURED: IC50

>>> recorded_value("CN(C)/C=N/C(=O)OCc1ccc(N(C(N)=O)c2c(F)cccc2F)nc1-c1ccc(F)cc1F [Compound 9]")
"20 µM"
>>> recorded_value("CN(C)/C=N/C(=O)OCc1ccc(N(C(=O)/N=C/N(C)C)c2c(F)cccc2F)nc1-c1ccc(F)cc1F [Compound 10]")
"4.3 µM"

* * *

System: IL-1 production in LPS-stimulated PBMCs
PROTOCOL SUMMARY: Inhibition of IL-1 production in LPS-stimulated PBMCs ("cell")
Assay type: cell-based
EXPERIMENTAL CONDITIONS: Homo sapiens, PBMC, 4 ng/ml LPS, overnight, ELISA IL-1β
pIC50: −log10 of the molar value.
PARAMETER MEASURED: pIC50

>>> recorded_value("CN(C)/C=N/C(=O)OCc1ccc(N(C(N)=O)c2c(F)cccc2F)nc1-c1ccc(F)cc1F")
7.30

* * *

Measured pIC50, listed per entry for reference.
Tested on: IL-1 production in whole blood
PROTOCOL SUMMARY: Inhibition of IL-1 production in LPS-stimulated whole blood ("WB")
Assay type: cell-based
EXPERIMENTAL CONDITIONS: Homo sapiens, 4 ng/ml LPS, overnight, ELISA IL-1β
pIC50: −log10 of the molar value.
PARAMETER MEASURED: pIC50

>>> recorded_value("CN(C)/C=N/C(=O)OCc1ccc(N(C(=O)/N=C/N(C)C)c2c(F)cccc2F)nc1-c1ccc(F)cc1F")
5.66
>>> recorded_value("CN(C)/C=N/C(=O)OCc1ccc(N(C(N)=O)c2c(F)cccc2F)nc1-c1ccc(F)cc1F")
4.91
